Test system: NCI-H23 lung
method.description: NCI tumour cell line growth inhibition, 48 h
Hi, to clarify the labels: class 1 covers TGI from 40 µM upward, class 0 covers anything below 40 µM.

molecule | label
Cc1c(S(=O)(=O)/N=C(\NN)Nc2ccc(Cl)cc2)sc2ccc(Cl)cc12 | class 0
O=C1O[C@@H](c2ccccc2)C[C@H]1CN1CCOCC1 | class 0
Cc1nc2c(n1CC(C)C)C(=O)c1ccccc1C2=O | class 1
CCC1CC(C)C(O)/C=C/C=C/CC(C)OC(=O)CC(O)C(OC)C1OC1OC(C)CC(O)(C(C)=O)C1O (stereo not given) | class 1
CCOC(=O)/C(=C\c1ccccc1)C(=O)CCN1CCOCC1 | class 0
O=C1C(Cl)=C(Nc2cccc(O)c2)C(=O)N1CCc1ccccc1 | class 0
O=C(NCCOC(=O)OCCNC(=O)NC1CCCCC1)NC1CCCCC1 | class 1
COc1ccc(C(c2ccc(C(C)C)cc(OC)c2=O)c2ccc(C(C)C)cc(OC)c2=O)cc1 | class 0
O=[N+]([O-])c1ccc(C2N3CCCCC3[C@H]3CCCCN23)cc1 (stereo not given in full) | class 1
O=C(c1ccc(Cl)cc1Cl)N(/N=C/C=C/c1ccccc1)c1nnc(-c2ccccc2)c(-c2ccccc2)n1 | class 1
Nc1c(Br)cc2c(c1Br)Cc1cc(Br)ccc1-2 | class 1
COc1cc(/C=C/C(=O)Nc2ccc3c(c2)/C(=C\c2cccn2C)C(=O)N3)cc(OC)c1OC | class 0
Cc1cc(C#N)c[n+](C)c1 | class 1
NCCc1c[nH]c2ccc(OC(=O)C(=O)O)cc12 | class 1
CC(=O)[CH-]C(=O)c1ccccc1.CC(=O)[CH-]C(=O)c1ccccc1.CCN(CC)CC[O-].CCN(CC)CC[O-].Cl.[Hf+4] | class 1
O=C1c2ccccc2-c2nc(-c3ccncc3)cc3c2c1nc1ccccc13 | class 1
CCC1=C(C)C(=O)N/C1=C\c1[nH]c(C)c([C@H](C)CCN)c1C | class 0
C=C1C(=O)O[C@H]2[C@H]1CC/C(CNC(=O)c1cccc3ccccc13)=C\CC[C@@]1(C)O[C@@H]21 | class 0
CC(C)=CCCC(C)[C@H]1CC(O)C2(C)C3=CCC4C(C)(C)[C@@H](O)CC[C@]4(C)C3=CC[C@]12C (stereo not given in full) | class 0
